assay-target: T1, recombinant human CFD mutant 1 (R157A, R207A), His-tagged (human, UniProt P00746 26-253)
T1 construct: positions are linear positions in the mature protein; also called rhCFD-mut1-His; Mut1
T1 sequence (P00746 26-253 R182A/R232A limits assumed): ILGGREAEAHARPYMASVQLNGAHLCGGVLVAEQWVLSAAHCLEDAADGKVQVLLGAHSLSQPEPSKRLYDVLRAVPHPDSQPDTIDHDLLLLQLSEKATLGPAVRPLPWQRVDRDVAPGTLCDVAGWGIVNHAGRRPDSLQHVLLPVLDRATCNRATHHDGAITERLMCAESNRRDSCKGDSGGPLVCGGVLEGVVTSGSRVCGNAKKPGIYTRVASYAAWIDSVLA
method: SPR MX96
value-type: pKd
Here pKd is given on a logarithmic scale as minus log10 of the concentration in mol/L.

binder	pKd
KCD056 (antibody, V domains shown) VH: EVKLVESGGGLVQPGGSLKVSCAASGFTFSTYTMSWVRQTPEKRLEWVAYITNGGGSTYYPDTEKGRFTISRDNAKNTLYLQMSSLKSEDTAMYYCVRHDYYAMDYWGQGTSVTVSS VL: DIQMTQSPSSLSASLGGKVTITCKASQDINKYIAWYQHKPGKGPRLLIHYTSTLQPGIPSRFSGSGSGRDYSFSISNLEPEDIATYYCLQYDNLLYTFGGGTTLEIK	7.08

The record that follows has no pKd shown yet.
q: Dear colleague, I am looking for the recorded pKd of the following binder: KCD214 (antibody, V domains shown, chimeric) VH: EVQLQQSVAEFVRPGASVKLSCTASGFNIKNTYMHWVKQRPEQGLEWIGRIDPANGNTEYAPKFQGKATITADTSSNTAYLQLSSLTSEDTAIYYCALYDYDGYWGQGTTLTVSS VL: EIVLTQSPALMAASPGEKVTITCRVSSSISSSSLHWYQQKSGTSPKPWIYGTSNLASGVPVRFSGSRSGTSYSLTISSMEAEDAATYYCQQWSDYPWTFGGGTKLEIK
a: 8.89
